target: 5-hydroxytryptamine receptor 1A (Homo sapiens, UniProt P08908)
Sequence (P08908 whole entry): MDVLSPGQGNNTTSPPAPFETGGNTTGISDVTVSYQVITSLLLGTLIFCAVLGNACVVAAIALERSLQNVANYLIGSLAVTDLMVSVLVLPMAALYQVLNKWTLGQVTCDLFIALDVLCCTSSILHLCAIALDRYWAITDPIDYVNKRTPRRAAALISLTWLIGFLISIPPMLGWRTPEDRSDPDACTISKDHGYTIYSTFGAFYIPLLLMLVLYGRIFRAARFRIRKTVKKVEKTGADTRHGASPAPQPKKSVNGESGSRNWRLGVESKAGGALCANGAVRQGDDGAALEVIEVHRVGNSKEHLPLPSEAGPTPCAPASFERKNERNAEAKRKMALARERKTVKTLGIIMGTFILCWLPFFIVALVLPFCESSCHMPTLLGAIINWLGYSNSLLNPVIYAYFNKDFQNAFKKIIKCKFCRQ
metric: pKi
Scale note: pKi = -log10(concentration in M).

// assay 5-hydroxytryptamine receptor 1A (Homo sapiens, UniProt P08908), entry O=C1c2ccccc2S(=O)(=O)N1CCCCN1CCN(c2ncccn2)CC1 , pKi value = 6.89
